measurement-target: T1, human serum albumin (human, UniProt P02768 25-609)
T1 construct: Bought recombinant product; also called HSA; Albucult
T1 sequence (P02768 25-609 limits assumed): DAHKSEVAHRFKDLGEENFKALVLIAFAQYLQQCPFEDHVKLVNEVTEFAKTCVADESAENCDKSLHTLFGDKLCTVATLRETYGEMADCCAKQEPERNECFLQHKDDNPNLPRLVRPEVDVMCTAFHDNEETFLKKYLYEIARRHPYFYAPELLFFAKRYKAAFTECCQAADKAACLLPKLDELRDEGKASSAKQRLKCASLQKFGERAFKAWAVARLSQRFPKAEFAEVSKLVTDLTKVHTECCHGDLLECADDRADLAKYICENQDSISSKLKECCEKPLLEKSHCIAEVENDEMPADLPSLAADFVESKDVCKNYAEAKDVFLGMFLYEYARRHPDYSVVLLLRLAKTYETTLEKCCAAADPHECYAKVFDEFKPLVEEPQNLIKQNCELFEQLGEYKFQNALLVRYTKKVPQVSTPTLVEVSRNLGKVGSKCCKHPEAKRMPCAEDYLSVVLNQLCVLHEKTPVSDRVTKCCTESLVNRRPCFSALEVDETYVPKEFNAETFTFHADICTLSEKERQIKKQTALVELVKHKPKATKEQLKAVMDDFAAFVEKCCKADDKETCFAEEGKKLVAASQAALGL
experimental-protocol: SPR Biacore2000, albumin immobilized on CM-5, polypeptide as analyte, relative KD
value-kind: pKd
The value called pKd is obtained by taking minus log10 of the concentration in mol/L.

Look at this binder and give its reported pKd. GSSLAEAKEAANAELDSYGVSDFYKKLIDKAKTVEGVEALKDAILAALP (designed binder, Inventive variant; 46 residues with an N-terminal GSS extension; R23K against PEP07843 (position counted on the 46-mer without GSS); Expressed in E. coli; also called ABD variant; R23K variant of PEP07843) [PEP12380]
11.12

Please give the result for GSSLAEAKEAANAELDSYGVSDFYKRLIDKAKTVEGVEALKDAILAALP (designed binder, single Arg at position 23 of the 46-mer; GSS extension at the N-terminus; also called ABD variant; control) [PEP07843] too.
11.17
